So I've got a bunch of binders here, and I need their IC50 (µg/ml) with constrains values.
- system_name: HIV Env of isolate CNE20 (clade BC) (HIV)
- experiment_description: cell-based or functional assay
Please respond with the number in µg/mL and leave the unit unwritten.

The reported IC50 (µg/ml) with constrains of the binder ePGDM9 (antibody, V domains shown) VH: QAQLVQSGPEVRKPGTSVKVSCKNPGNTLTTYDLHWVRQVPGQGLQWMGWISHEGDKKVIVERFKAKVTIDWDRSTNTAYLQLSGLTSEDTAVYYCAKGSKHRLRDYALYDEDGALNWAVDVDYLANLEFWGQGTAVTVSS VL: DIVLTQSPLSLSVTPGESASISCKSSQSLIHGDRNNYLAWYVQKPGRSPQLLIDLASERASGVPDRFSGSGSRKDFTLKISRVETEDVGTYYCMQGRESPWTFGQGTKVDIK was 0.002

The reported IC50 (µg/ml) with constrains of the binder PGDM1400 (antibody, V domains shown) VH: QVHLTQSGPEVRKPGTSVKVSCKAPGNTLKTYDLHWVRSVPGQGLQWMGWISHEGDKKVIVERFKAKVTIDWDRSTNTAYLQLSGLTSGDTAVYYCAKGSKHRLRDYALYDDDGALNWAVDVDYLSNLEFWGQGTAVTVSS VL: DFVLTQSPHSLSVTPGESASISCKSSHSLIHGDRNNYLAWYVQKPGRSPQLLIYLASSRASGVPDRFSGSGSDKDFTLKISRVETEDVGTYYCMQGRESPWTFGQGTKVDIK was 0.005

The reported IC50 (µg/ml) with constrains of the binder ePGDM5 (antibody, V domains shown) VH: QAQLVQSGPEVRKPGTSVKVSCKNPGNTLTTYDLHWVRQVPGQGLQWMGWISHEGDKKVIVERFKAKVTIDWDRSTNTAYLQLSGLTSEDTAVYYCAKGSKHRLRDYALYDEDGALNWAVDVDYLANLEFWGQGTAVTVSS VL: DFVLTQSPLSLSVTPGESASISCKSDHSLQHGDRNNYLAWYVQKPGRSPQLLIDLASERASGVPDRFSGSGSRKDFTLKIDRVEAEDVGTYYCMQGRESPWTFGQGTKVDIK was 0.004

The reported IC50 (µg/ml) with constrains of the binder ePGDM13 (antibody, V domains shown) VH: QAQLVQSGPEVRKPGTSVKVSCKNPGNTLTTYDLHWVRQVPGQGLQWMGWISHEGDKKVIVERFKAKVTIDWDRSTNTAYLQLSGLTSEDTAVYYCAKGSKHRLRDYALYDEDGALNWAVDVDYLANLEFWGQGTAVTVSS VL: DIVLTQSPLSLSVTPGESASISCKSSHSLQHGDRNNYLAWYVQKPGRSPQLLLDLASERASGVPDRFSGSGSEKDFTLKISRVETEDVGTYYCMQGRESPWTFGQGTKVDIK was 0.004
